Sourced from ChEMBL document CHEMBL1909046

- assay-procedure: DRUGMATRIX: Glutamate, NMDA, Phencyclidine radioligand binding (ligand: [3H] TCP)
- Assay type: cell membranes, Rattus norvegicus, Wistar, Cerebral cortex, Membrane
- conditions-used: Not Active = under 50% inhibition at 10 µM
measured-quantity: Ki

Record excerpt, results attached:
compound	Ki
NC(=O)c1cccnc1 [NIACINAMIDE]	Not Active
CC(C)(C(=O)O)c1ccc(C(O)CCCN2CCC(C(O)(c3ccccc3)c3ccccc3)CC2)cc1 (stereo not given) [FEXOFENADINE]	Not Active
CCCNC(C)C(=O)Nc1ccccc1C (stereo not given) [PRILOCAINE]	Not Active
CCN(C(C)=O)c1cccc(-c2ccnc3c(C#N)cnn23)c1 [ZALEPLON]	Not Active
CC[C@H]1[C@@H]2C[C@H]3[C@@H]4N(C)c5ccccc5[C@]45C[C@@H]([C@@H]2[C@H]5O)N3[C@@H]1O [AJMALINE]	Not Active

Report Ki for each item below.
1. NS(=O)(=O)c1cc(C2(O)NC(=O)c3ccccc32)ccc1Cl (stereo not given) [CHLORTHALIDONE]
2. C[C@H]1COc2c(N3CCN(C)CC3)c(F)cc3c(=O)c(C(=O)O)cn1c23.C[C@H]1COc2c(N3CCN(C)CC3)c(F)cc3c(=O)c(C(=O)O)cn1c23.O [LEVOFLOXACIN]
3. CC1=NN(c2ccccc2)C(=O)C1 [EDARAVONE]
4. C[C@@H]1O[C@@H](O[C@H]2C[C@@H](O)[C@]3(CO)[C@H]4[C@H](O)C[C@]5(C)[C@@H](C6=CC(=O)OC6)CC[C@]5(O)[C@@H]4CC[C@]3(O)C2)[C@H](O)[C@H](O)[C@H]1O [OUABAIN]
5. O=C(O)P(=O)(O)O [FOSCARNET]
6. CN(C)C(=O)Oc1cccc([N+](C)(C)C)c1.[Br-] [NEOSTIGMINE BROMIDE]
7. CC[C@]1(O)C[C@@H]2CN(CCc3c([nH]c4ccccc34)[C@@](C(=O)OC)(c3cc4c(cc3OC)N(C)[C@H]3[C@@](O)(C(N)=O)[C@H](O)[C@]5(CC)C=CCN6CC[C@]43[C@@H]65)C2)C1 [VINDESINE]
8. C[N+](C)(C)CCOC(=O)CCC(=O)OCC[N+](C)(C)C.[Cl-].[Cl-] [SUCCINYLCHOLINE CHLORIDE]

output:
1. Not Active
2. Not Active
3. Not Active
4. Not Active
5. Not Active
6. Not Active
7. Not Active
8. Not Active

Report Ki for each item below.
1. CNC1=Nc2ccc(Cl)cc2C(c2ccccc2)=[N+]([O-])C1 [CHLORDIAZEPOXIDE]
2. CC(=O)OCC(=O)[C@@]12OC(C)(C)O[C@@H]1C[C@H]1[C@@H]3C[C@H](F)C4=CC(=O)C=C[C@]4(C)[C@@]3(F)[C@@H](O)C[C@@]12C [FLUOCINONIDE]

output:
1: Not Active; 2: Not Active

---

- test-target: Cytochrome P450 1A2 (Homo sapiens, UniProt P05177); note: in other assays of this panel Not Active means under 50% inhibition at 10 µM
- Sequence (P05177 whole entry): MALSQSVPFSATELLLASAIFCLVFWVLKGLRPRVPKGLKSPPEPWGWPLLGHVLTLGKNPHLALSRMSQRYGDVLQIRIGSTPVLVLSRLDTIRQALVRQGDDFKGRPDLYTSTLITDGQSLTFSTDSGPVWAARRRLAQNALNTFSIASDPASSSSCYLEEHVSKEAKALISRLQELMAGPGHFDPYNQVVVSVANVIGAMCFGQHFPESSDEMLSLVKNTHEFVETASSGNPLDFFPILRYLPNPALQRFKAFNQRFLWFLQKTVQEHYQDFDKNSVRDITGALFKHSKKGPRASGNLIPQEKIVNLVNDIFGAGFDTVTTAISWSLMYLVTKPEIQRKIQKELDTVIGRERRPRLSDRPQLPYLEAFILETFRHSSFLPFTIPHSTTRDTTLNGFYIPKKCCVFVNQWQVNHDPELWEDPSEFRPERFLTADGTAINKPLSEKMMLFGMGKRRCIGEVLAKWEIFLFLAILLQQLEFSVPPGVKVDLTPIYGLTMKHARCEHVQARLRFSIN
- conditions-used: bti-tn-5b1-4
measured-quantity: Ki

Record excerpt, results attached:
compound	Ki
CS(=O)(=O)Nc1ccc([N+](=O)[O-])cc1Oc1ccccc1 [NIMESULIDE]	Not Active
COc1ccnc(C[S+]([O-])c2nc3ccc(OC(F)F)cc3[nH]2)c1OC (stereo unspecified)	Not Active
CCCNC(=O)NS(=O)(=O)c1ccc(Cl)cc1 [CHLORPROPAMIDE]	Not Active
O=C(O)CC(O)(CC(=O)O)C(=O)O	Not Active
CCCCC1=NC2(CCCC2)C(=O)N1Cc1ccc(-c2ccccc2-c2nnn[nH]2)cc1	Not Active
CC[C@H]1[C@@H]2C[C@H]3[C@@H]4N(C)c5ccccc5[C@]45C[C@@H]([C@@H]2[C@H]5O)N3[C@@H]1O	Not Active
CC[C@]1(O)C[C@@H]2CN(CCc3c([nH]c4ccccc34)[C@@](C(=O)OC)(c3cc4c(cc3OC)N(C)[C@H]3[C@@](O)(C(N)=O)[C@H](O)[C@]5(CC)C=CCN6CC[C@]43[C@@H]65)C2)C1	Not Active
Cn1c(=O)c2c(ncn2C)n(C)c1=O	Not Active

Report Ki for each item below.
1. CN1CCN(c2c(F)cc3c(=O)c(C(=O)O)cn(CCF)c3c2F)CC1
2. C[C@H]1[C@H](NC(=O)/C(=N\OC(C)(C)C(=O)O)c2csc(N)n2)C(=O)N1S(=O)(=O)O
3. C[C@]12C=CC(=O)C=C1CC[C@H]1[C@@H]3C[C@@H](O)[C@](O)(C(=O)CO)[C@@]3(C)C[C@H](O)[C@@]12F
4. O=C1C[C@@H]2OCC=C3CN4CC[C@]56c7ccccc7N1[C@H]5[C@H]2[C@H]3C[C@H]46

output:
1: Not Active; 2: Not Active; 3: Not Active; 4: Not Active
